Recorded Top (MFI) for the following binders
Target: T1, ROR1 naturally expressed on human tumor cell lines (A549, Jeko-1, SW620, PA-1) (human, UniProt Q01973 30-937)
T1 construct: whole, on cells; also called cells expressing ROR1
T1 sequence (Q01973 30-937): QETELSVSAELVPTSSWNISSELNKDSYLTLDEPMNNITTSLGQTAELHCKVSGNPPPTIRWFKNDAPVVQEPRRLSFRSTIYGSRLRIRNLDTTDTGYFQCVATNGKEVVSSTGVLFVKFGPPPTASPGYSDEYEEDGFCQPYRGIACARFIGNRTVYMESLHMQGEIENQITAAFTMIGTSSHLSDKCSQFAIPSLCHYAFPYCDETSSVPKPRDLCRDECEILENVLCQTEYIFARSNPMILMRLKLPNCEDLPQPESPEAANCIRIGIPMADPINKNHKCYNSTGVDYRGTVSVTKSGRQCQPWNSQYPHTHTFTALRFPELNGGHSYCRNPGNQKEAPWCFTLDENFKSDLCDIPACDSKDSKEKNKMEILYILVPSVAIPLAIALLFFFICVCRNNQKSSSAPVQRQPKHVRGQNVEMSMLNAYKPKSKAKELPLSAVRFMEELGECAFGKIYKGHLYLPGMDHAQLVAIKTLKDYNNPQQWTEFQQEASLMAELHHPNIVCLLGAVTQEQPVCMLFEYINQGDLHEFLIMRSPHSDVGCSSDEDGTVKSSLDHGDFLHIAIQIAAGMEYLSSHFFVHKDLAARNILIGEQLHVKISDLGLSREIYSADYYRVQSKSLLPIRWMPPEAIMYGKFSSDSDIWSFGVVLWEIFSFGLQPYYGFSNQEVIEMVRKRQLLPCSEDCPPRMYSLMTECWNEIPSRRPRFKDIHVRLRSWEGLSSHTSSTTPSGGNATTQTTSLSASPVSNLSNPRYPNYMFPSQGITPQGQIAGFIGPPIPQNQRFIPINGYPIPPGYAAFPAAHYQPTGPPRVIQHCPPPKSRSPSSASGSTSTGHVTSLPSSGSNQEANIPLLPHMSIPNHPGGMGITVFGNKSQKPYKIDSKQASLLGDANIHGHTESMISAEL
Assay: FACS on SW620 cells naturally expressing ROR1
Number only, in MFI; omit the unit.

Below, each entry is followed by its recorded Top (MFI) result.
>  <binder>
hz137G11D10-3.2 (antibody, human IgG1, kappa, V domains shown, Humanized, human IgG1/kappa) VH: QVQLQESGPGLVKPSQTLSLTCTVSGYSITSDYAWNWIRQHPGKGLEWIGYITYSASTSYNPSLKSRVTISRDTSKNQFFLKLSSVTAADTAVYYCARGAGTYYFDYWGQGTLVTVSS VL: DIQMTQSPSSLSASVGDRVTITCITSTDIDEDMNWYQQKPGKAPKLLISEDNSLRPGVPSRFSSSGYGTDFTLTISSLQPEDFATYYCLQTNNLPLTFGQGTKVEIKR

>  <Top (MFI)>
30700

$$$$
>  <binder>
hz137G11D10-2.1 (antibody, human IgG1, kappa, V domains shown, Humanized, human IgG1/kappa) VH: QVQLQESGPGLVKPSQTLSLTCTVSGYSITSDYAWNWIRQHPGKGLEWIGYITYSASTSYNPSLKSRVTISRDTSKNQFSLKLSSVTAADTAVYYCARGAGTYYFDYWGQGTLVTVSS VL: DIQMTQSPSSLSASVGDRVTITCITSTDIDEDMNWYQQKPGKAPKLLIYEDNSLRPGVPSRFSGSGYGTDFTLTISSLQPEDFATYYCLQTNNLPLTFGQGTKVEIKR

>  <Top (MFI)>
29500

$$$$

Next up:
Asked: Top (MFI) lookup needed for hz137G11D10-3.1 (antibody, human IgG1, kappa, V domains shown, Humanized, human IgG1/kappa) VH: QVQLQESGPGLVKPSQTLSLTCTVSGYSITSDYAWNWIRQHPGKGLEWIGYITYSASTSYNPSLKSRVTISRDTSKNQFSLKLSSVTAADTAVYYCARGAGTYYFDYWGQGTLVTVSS VL: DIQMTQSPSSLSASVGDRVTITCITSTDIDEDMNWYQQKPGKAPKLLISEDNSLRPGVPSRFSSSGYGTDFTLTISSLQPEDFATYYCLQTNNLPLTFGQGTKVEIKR , thanks.
Given back: 30900
